Provenance of the data: BindingDB's records for doi:10.7270/Q2VX0F3D

Reported pEC50 values for a set of compounds
# TARGET_UNDER_TEST: Corticotropin-releasing factor-binding protein (Homo sapiens, UniProt P24387)
# Sequence (P24387 whole entry): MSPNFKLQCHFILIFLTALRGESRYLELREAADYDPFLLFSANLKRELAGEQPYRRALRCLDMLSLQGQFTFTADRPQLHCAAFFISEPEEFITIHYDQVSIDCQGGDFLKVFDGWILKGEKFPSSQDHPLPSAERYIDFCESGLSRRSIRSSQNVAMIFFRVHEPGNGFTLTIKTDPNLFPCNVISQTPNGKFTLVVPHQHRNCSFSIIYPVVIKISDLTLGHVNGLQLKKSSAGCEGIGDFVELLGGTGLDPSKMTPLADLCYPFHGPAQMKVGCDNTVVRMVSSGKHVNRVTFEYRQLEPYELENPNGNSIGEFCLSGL
# EXPERIMENT_DESCRIPTION: activators of CRF receptor 2 with binding protein – uHTS hits, confirmation (AID 602473)
Interpret pEC50 as the negative base-10 log of the concentration measured in mol/L.

These recorded examples may help you get a feel for the data.
COMPOUND	TARGET_UNDER_TEST	pEC50
CSc1nnc(C)c(CC=Nc2ccc(C)cc2)n1 [MLS000326071]	Corticotropin-releasing factor-binding protein (Homo sapiens, UniProt P24387)	4.83
C=CCSc1nnc(C)c(CC=Nc2ccc(Cl)cc2)n1	Corticotropin-releasing factor-binding protein (Homo sapiens, UniProt P24387)	5.32

Let us move to another entry and its pEC50.
Entry "O=C(Cc1nc2ccccc2n(-c2ccccc2)c1=O)c1ccccc1" ; pEC50 = 4.94

====

Reported EC50 values for a set of molecules
# TARGET_UNDER_TEST: UniProt:P24387
# EXPERIMENT_DESCRIPTION: activators of CRF receptor 2 with binding protein – uHTS hits, confirmation (AID 602473)

These recorded examples may help you get a feel for the data.
MOLECULE	EC50
Oc1ccc(CN=Nc2nc(N3CCCCCC3)nc(N3CCCCCC3)n2)c(O)c1	> 53 µM
Cc1cc2c(cc1Br)=NC(=O)C=2NNC(=O)C1CC1c1ccccc1 (stereo not drawn)	> 53 µM

Entry N#CC(C(=O)COC(=O)COc1cccc(Br)c1)c1nc2ccccc2[nH]1 (stereo not drawn) [MLS000391269] ; EC50 = > 53 µM
